- assay_target: UniProtKB P36888
- Sequence (P36888 27-993): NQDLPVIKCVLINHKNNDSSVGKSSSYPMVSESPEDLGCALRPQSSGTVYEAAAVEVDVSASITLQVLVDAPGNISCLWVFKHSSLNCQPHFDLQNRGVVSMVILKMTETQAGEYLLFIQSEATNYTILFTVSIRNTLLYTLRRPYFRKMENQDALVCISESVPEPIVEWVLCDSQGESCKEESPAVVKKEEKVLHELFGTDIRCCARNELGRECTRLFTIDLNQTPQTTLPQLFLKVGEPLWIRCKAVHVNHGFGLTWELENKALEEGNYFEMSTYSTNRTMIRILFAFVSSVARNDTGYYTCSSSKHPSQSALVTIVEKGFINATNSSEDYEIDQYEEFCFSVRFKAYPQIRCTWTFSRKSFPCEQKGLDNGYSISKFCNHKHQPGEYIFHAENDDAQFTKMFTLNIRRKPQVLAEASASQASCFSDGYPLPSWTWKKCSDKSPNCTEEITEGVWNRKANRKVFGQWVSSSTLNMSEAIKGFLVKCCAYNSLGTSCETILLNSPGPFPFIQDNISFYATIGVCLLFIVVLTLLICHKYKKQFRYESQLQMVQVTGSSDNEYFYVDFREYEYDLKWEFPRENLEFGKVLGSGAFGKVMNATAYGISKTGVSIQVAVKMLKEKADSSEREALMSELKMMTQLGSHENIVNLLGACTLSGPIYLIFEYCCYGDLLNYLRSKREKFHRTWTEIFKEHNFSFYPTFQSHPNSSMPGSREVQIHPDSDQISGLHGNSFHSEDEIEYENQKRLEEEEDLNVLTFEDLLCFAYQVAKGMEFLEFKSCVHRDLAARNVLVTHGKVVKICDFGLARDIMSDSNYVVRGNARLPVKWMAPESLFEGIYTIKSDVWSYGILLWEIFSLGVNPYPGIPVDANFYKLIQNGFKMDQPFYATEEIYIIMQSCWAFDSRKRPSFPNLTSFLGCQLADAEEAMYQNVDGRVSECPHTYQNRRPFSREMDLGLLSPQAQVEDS
- experiment_summary: RBC HotSpot Kinase Assay, FLT3
- Type: biochemical
- Set-up: purchased Reaction Biology (RBC HotSpot)
- experimental_context: isolated kinase enzyme, 33P-ATP, P81 filter-binding
Listing: IC50 of selected compounds

INSERT INTO results (compound, observed_measurement) VALUES
  ('COc1cc2ncc(-c3ccnc(N[C@@H]4CCCNC4)n3)n2nc1N1CC(F)(F)C1 [Compound 17a]', '4000 pM');

Lookup: Query (compound): COc1cc2ncc(-c3nc(N[C@@H]4CCCNC4)ncc3F)n2nc1C1CC(F)(F)C1 [Compound 51a] ; field requested: IC50
Found: < 500 pM

Lookup: Which measured IC50 value corresponds to CC(O)(c1ccc2ncc(-c3cncc(N[C@@H]4CCCNC4)n3)n2c1)C(F)(F)F (single isomer, unassigned) [Compound 28a] ?
Found: 2000 pM

Lookup: Item CC(O)(c1ccc2ncc(-c3nc(N[C@@H]4CCCNC4)ncc3F)n2c1)C(F)(F)F (single isomer, unassigned) [Compound 39a] has what recorded IC50?
Found: < 500 pM
